tested on: JJN-3 (Plasma Cell Myeloma); experiment: combination Emax (second highest fraction inhibited in the dose matrix, 72 h); higher = more inhibition; extreme values may be limits of the assay
readout: combination Emax

INSERT INTO measurements (compound, readout, value) VALUES
  ('COc1cccc(OCCCN)c1-c1cc(Nc2cnc(C#N)cn2)n[nH]1 [Prexasertib] + Cc1cc2ncnn2cc1Nc1ncc2c(n1)n(C1CCOCC1)c(=O)n2C [AZD7648] (first compound max 1 µM, 7x7, partner max 10 µM)', 'combination Emax', 0.966),
  ('Cc1c2c(nn1C)CSCc1cc(n(C)n1)CSc1cc(c3ccccc3c1)OCCCc1c(C(=O)O)n(C)c3c-2c(Cl)ccc13 [AZD5991] + Cn1cnc2c(F)c(Nc3ccc(Br)cc3Cl)c(C(=O)NOCCO)cc21 [Selumetinib] (first compound max 1 µM, 7x7, partner max 3 µM)', 'combination Emax', 1);
